# SYSTEM UNDER TEST: HLA-B*48:01
# MEASUREMENT PROTOCOL: IEDB peptide-MHC binding, purified MHC/direct/fluorescence; filed as Kd, often an IC50 or EC50 that approximates it; bounds were set here for any values at or beyond the usual limits of such assays
# ASSAY SETUP: source organism: Vibrio parahaemolyticus
OUTCOME MEASURE: Kd

Exercise: Which Kd is reported for this sequence? `ILRPLGIEY`
Key: ≥ 20 µM

---

Recorded pKd for the following sequences
# SYSTEM UNDER TEST: HLA-B*27:03
# MEASUREMENT PROTOCOL: IEDB peptide-MHC binding, purified MHC/competitive/fluorescence; filed as Kd, often an IC50 or EC50 that approximates it; bounds were set here for any values at or beyond the usual limits of such assays
# ASSAY SETUP: source organism: Entamoeba histolytica HM-1:IMSS
pKd: −log10 of the molar value.

{"columns": ["ITEM SEQUENCE", "pKd"],
 "data": [
  ["EVIRATYPS", "≤ 4.70"]
]}

Exercise: Data request, read-out pKd, for `RTFDRFFEE`
Key: ≤ 4.70

---

# SYSTEM UNDER TEST: HLA-A*02:01
# MEASUREMENT PROTOCOL: IEDB peptide-MHC binding, purified MHC/competitive/fluorescence; filed as Kd, often an IC50 or EC50 that approximates it; bounds were set here for any values at or beyond the usual limits of such assays
# ASSAY SETUP: source organism: Brucella suis 1330
OUTCOME MEASURE: Kd

Exercise: State the recorded Kd for this entry: `TEWPQLKVA`
Key: ≥ 20 µM

---

# SYSTEM UNDER TEST: HLA-A*29:02
# MEASUREMENT PROTOCOL: IEDB peptide-MHC binding, purified MHC/direct/fluorescence; filed as Kd, often an IC50 or EC50 that approximates it; bounds were set here for any values at or beyond the usual limits of such assays
# ASSAY SETUP: source organism: Mycobacterium tuberculosis variant bovis
OUTCOME MEASURE: Kd

Exercise: Which Kd reading was recorded for the sequence `TPREAPYEL` ?
Key: ≥ 20 µM

---

# SYSTEM UNDER TEST: HLA-B*46:01
# MEASUREMENT PROTOCOL: IEDB peptide-MHC binding, purified MHC/competitive/fluorescence; filed as Kd, often an IC50 or EC50 that approximates it; bounds were set here for any values at or beyond the usual limits of such assays
# ASSAY SETUP: source organism: Listeria welshimeri serovar 6b str. SLCC5334
pKd: −log10 of the molar value.
OUTCOME MEASURE: pKd

Exercise: Which pKd is reported for this sequence? `ELYENKPDV`
Key: ≤ 4.70

---

# SYSTEM UNDER TEST: HLA-A*01:01
# MEASUREMENT PROTOCOL: IEDB peptide-MHC binding, purified MHC/direct/fluorescence; filed as Kd, often an IC50 or EC50 that approximates it; bounds were set here for any values at or beyond the usual limits of such assays
# ASSAY SETUP: source organism: Bacillus anthracis
OUTCOME MEASURE: Kd (nM)
All answers are understood in nM, so give the number only.

Exercise: Which Kd is reported for this sequence? `PTDYAKPQY`
Key: 52.5

---

Measured Kd accompanies every entry in the list below.
# SYSTEM UNDER TEST: HLA-B*44:02
# MEASUREMENT PROTOCOL: IEDB peptide-MHC binding, purified MHC/competitive/radioactivity; filed as Kd, often an IC50 or EC50 that approximates it; bounds were set here for any values at or beyond the usual limits of such assays
# ASSAY SETUP: source organism: Dengue virus 2 Jamaica/1409/1983
Report the figure in nM without appending any unit label.

Observe how each entry below is paired with its result.
{"columns": ["ITEM SEQUENCE", "OUTPUT UNIT", "NUMERIC RESULT"],
 "data": [
  ["VEMGEAAGIF", "nM", 39.2],
  ["AICSAVPSHW", "nM", 181],
  ["KDLISYGGGW", "nM", 310]
]}

Exercise: Please look up its Kd: `EENVEVEIW`
Key: 45.1

Exercise: What measured Kd goes with `NEPEDIDCW` ?
Key: 1080

Exercise: Dear colleague, I am looking for the recorded Kd of the following sequence: `LENLMWKQI`
Key: 22.2
